- ASSAY TEXT: small-molecule binders of probe aNOTCH2, primary screen, biochemical, small-molecule microarray, 635/667 nm fluorescence (AID 1121);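 also: score merges feature fluorescence read at 667 nm with its signal to noise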
- APPLIED CONDITIONS: higher = more signal
REPORTED PROPERTY: composite z-score
Give bare numbers.

For orientation, consider the following solved cases.
- C=C(CCCC)/C(=C/C[C@@H](OC(C)=O)c1ccccc1OCCO)c1cnc2ccccc2c1: -0.0209
- O=C(NCc1ccccc1)[C@@]1(Cc2ccccc2)N=C(c2ccc(OCCCO)cc2)O[C@H]1c1ccccc1: 0.349
- CC(C)N1C(=O)[C@@]2(Cc3ccccc31)c1ccccc1C(=O)N(C1CCCCC1)[C@H]2c1ccc(CO)cc1: -0.174
- COC(=O)[C@@]1(Cc2ccc(F)cc2)[C@H]2c3cc(C(=O)N(C)C)n(CC4CC4)c3C[C@H]2CN1C(=O)c1ccccc1: 0.904
- CN(C)C(=O)[C@@]1(Cc2ccccc2)N=C(c2ccc(OCCCO)cc2)O[C@H]1c1ccccc1N=[N+]=[N-]: -0.0422

Give me composite z-score for each of these molecules, listed below.
1. O=C1OCC=C[C@H]2OC34C=CCN(CCN5CCOCC5)C(=O)[C@H]3N(CCCO)C(=O)[C@@H]4[C@@H]12 (some centres not stated)
2. C=CCNC(=O)[C@@H]1[C@H]2C(=O)O[C@H](c3ccccc3)[C@H](c3ccccc3)N2[C@H](c2ccc(OCCO)cc2)[C@@]12C(=O)Nc1ccc(C#CCCO)cc12

[-0.122, 0.403]
